test system: Enterococcus faecalis; test: Antimicrobial activity against vancomycin-susceptible Enterococcus faecalis after 20 to 24 hrs by broth microdilution method; type: functional
Would you kindly list MIC90 for each of these compounds?
All answers are understood in µg/mL, so give the number only.

Data point: CCCCCCCCCC(=O)N[C@@H](Cc1c[nH]c2ccccc12)C(=O)N[C@H](CC(N)=O)C(=O)N[C@@H](CC(=O)O)C(=O)N[C@@H]1C(=O)NCC(=O)N[C@@H](CCCN)C(=O)N[C@@H](CC(=O)O)C(=O)N[C@H](C)C(=O)N[C@@H](CC(=O)O)C(=O)NCC(=O)N[C@H](CO)C(=O)N[C@@H]([C@H](C)CC(=O)O)C(=O)N[C@@H](CC(=O)c2ccccc2N)C(=O)O[C@@H]1C ; MIC90 = 2

Data point: CCCCCCCCCCNCCN[C@@]1(C)C[C@H](O[C@H]2[C@H](Oc3c4cc5cc3Oc3ccc(cc3Cl)[C@@H](O)[C@@H](NC(=O)[C@@H](CC(C)C)NC)C(=O)N[C@@H](CC(N)=O)C(=O)N[C@H]5C(=O)N[C@H]3C(=O)N[C@H](C(=O)N[C@H](C(=O)O)c5cc(O)c(CNCP(=O)(O)O)c(O)c5-c5cc3ccc5O)[C@H](O)c3ccc(c(Cl)c3)O4)O[C@H](CO)[C@@H](O)[C@@H]2O)O[C@@H](C)[C@H]1O ; MIC90 = 0.5

Data point: CC(=O)NC[C@H]1CN(c2ccc(N3CCOCC3)c(F)c2)C(=O)O1 ; MIC90 = 2

###

system: Streptococcus pneumoniae; experiment: Antibacterial activity against penicillin-susceptible Streptococcus pneumoniae after 20 to 24 hrs by broth microdilution method; assay type: functional
Would you kindly list MIC90 for each of these compounds?

Readout MIC90 for CO/N=C(\C(=O)N[C@@H]1C(=O)N2C(C(=O)O)=C(CSc3nc(=O)c(O)nn3C)CS[C@H]12)c1csc(N)n1 , test system Streptococcus pneumoniae, was 0.03 µg/mL

Readout MIC90 for CC[C@H]1OC(=O)[C@H](C)C(=O)[C@H](C)[C@@H](O[C@@H]2O[C@H](C)C[C@H](N(C)C)[C@H]2O)[C@](C)(OC)C[C@@H](C)C(=O)[C@H](C)[C@H]2N(CCCCn3cnc(-c4cccnc4)c3)C(=O)O[C@]12C , test system Streptococcus pneumoniae, was 0.008 µg/mL

Readout MIC90 for CC(=O)NC[C@H]1CN(c2ccc(N3CCOCC3)c(F)c2)C(=O)O1 , test system Streptococcus pneumoniae, was 1 µg/mL

Readout MIC90 for CO/N=C(\C(=O)N[C@@H]1C(=O)N2C(C(=O)O)=C(COC(N)=O)CS[C@H]12)c1ccco1 , test system Streptococcus pneumoniae, was ≤ 0.12 µg/mL

###

system: Streptococcus pneumoniae; test: Antibacterial activity against penicillin-susceptible Streptococcus pneumoniae after 20 to 24 hrs by broth microdilution method; format: functional
Would you kindly list MIC90 for each of these compounds?
All answers are understood in µg/mL, so give the number only.

Data point: CCCCCCCCCC(=O)N[C@@H](Cc1c[nH]c2ccccc12)C(=O)N[C@H](CC(N)=O)C(=O)N[C@@H](CC(=O)O)C(=O)N[C@@H]1C(=O)NCC(=O)N[C@@H](CCCN)C(=O)N[C@@H](CC(=O)O)C(=O)N[C@H](C)C(=O)N[C@@H](CC(=O)O)C(=O)NCC(=O)N[C@H](CO)C(=O)N[C@@H]([C@H](C)CC(=O)O)C(=O)N[C@@H](CC(=O)c2ccccc2N)C(=O)O[C@@H]1C ; MIC90 = 0.25

Data point: CN(C)[C@@H]1C(O)=C(C(N)=O)C(=O)[C@@]2(O)C(O)=C3C(=O)c4c(O)cccc4[C@@](C)(O)[C@H]3C[C@@H]12 ; MIC90 = 0.25

Data point: CCC[C@@H]1C[C@@H](C(=O)N[C@@H]([C@H]2O[C@H](SC)[C@H](O)[C@@H](O)[C@H]2O)[C@H](C)Cl)N(C)C1 ; MIC90 = 0.06

Data point: C[C@H]1COc2c(N3CCN(C)CC3)c(F)cc3c(=O)c(C(=O)O)cn1c23.C[C@H]1COc2c(N3CCN(C)CC3)c(F)cc3c(=O)c(C(=O)O)cn1c23.O ; MIC90 = 1

###

tested on: Staphylococcus; assay: Antimicrobial activity against methicillin-resistant coagulase-negative Staphylococcus after 20 to 24 hrs by broth microdilution method; format: functional
property_measured: MIC90

Data point: Cc1onc(-c2ccccc2)c1C(=O)N[C@@H]1C(=O)N2[C@@H]1SC(C)(C)[C@@H]2C(=O)O ; MIC90 = > 4 µg/mL

Data point: CCC[C@@H]1C[C@@H](C(=O)N[C@@H]([C@H]2O[C@H](SC)[C@H](O)[C@@H](O)[C@H]2O)[C@H](C)Cl)N(C)C1 ; MIC90 = > 4 µg/mL

Data point: CNC1C(O)C(OC2C(N)CC(N)C(OC3OC(CN)CCC3N)C2O)OCC1(C)O (centres undefined) ; MIC90 = > 16 µg/mL

Data point: O=C(O)c1cn(C2CC2)c2cc(N3CCNCC3)c(F)cc2c1=O ; MIC90 = > 8 µg/mL

###

Would you kindly list MIC90 for each of these compounds?
test system: Staphylococcus; assay: Antimicrobial activity against methicillin-susceptible coagulase-negative Staphylococcus after 20 to 24 hrs by broth microdilution method; format: functional

Data point: CNC1C(O)C(OC2C(N)CC(N)C(OC3OC(CN)CCC3N)C2O)OCC1(C)O (stereo not drawn) ; MIC90 = ≤ 0.06 µg/mL

Data point: CCCCCCCCCCNCCN[C@@]1(C)C[C@H](O[C@H]2[C@H](Oc3c4cc5cc3Oc3ccc(cc3Cl)[C@@H](O)[C@@H](NC(=O)[C@@H](CC(C)C)NC)C(=O)N[C@@H](CC(N)=O)C(=O)N[C@H]5C(=O)N[C@H]3C(=O)N[C@H](C(=O)N[C@H](C(=O)O)c5cc(O)c(CNCP(=O)(O)O)c(O)c5-c5cc3ccc5O)[C@H](O)c3ccc(c(Cl)c3)O4)O[C@H](CO)[C@@H](O)[C@@H]2O)O[C@@H](C)[C@H]1O ; MIC90 = 0.25 µg/mL

Data point: CCC[C@@H]1C[C@@H](C(=O)N[C@@H]([C@H]2O[C@H](SC)[C@H](O)[C@@H](O)[C@H]2O)[C@H](C)Cl)N(C)C1 ; MIC90 = ≤ 0.5 µg/mL

###

test system: Streptococcus pneumoniae; assay: Antibacterial activity against penicillin-intermediate Streptococcus pneumoniae after 20 to 24 hrs by broth microdilution method; format: functional
Would you kindly list MIC50 for each of these compounds?
All answers are understood in µg/mL, so give the number only.

Data point: CC[C@H]1OC(=O)[C@H](C)[C@@H](O[C@H]2C[C@@](C)(OC)[C@@H](O)[C@H](C)O2)[C@H](C)[C@@H](O[C@@H]2O[C@H](C)C[C@H](N(C)C)[C@H]2O)[C@](C)(O)C[C@@H](C)C(=O)[C@H](C)[C@@H](O)[C@]1(C)O ; MIC50 = 0.03

Data point: CN[C@H](CC(C)C)C(=O)N[C@H]1C(=O)N[C@@H](CC(N)=O)C(=O)N[C@H]2C(=O)N[C@H]3C(=O)N[C@H](C(=O)N[C@H](C(=O)O)c4cc(O)cc(O)c4-c4cc3ccc4O)[C@H](O)c3ccc(c(Cl)c3)Oc3cc2cc(c3O[C@@H]2O[C@H](CO)[C@@H](O)[C@H](O)[C@H]2O[C@H]2C[C@](C)(N)[C@H](O)[C@H](C)O2)Oc2ccc(cc2Cl)[C@H]1O ; MIC50 = 0.25

Data point: C[C@H]1COc2c(N3CCN(C)CC3)c(F)cc3c(=O)c(C(=O)O)cn1c23.C[C@H]1COc2c(N3CCN(C)CC3)c(F)cc3c(=O)c(C(=O)O)cn1c23.O ; MIC50 = 0.5

Data point: CCC[C@@H]1C[C@@H](C(=O)N[C@@H]([C@H]2O[C@H](SC)[C@H](O)[C@@H](O)[C@H]2O)[C@H](C)Cl)N(C)C1 ; MIC50 = 0.06

Data point: CC[C@H]1OC(=O)[C@H](C)C(=O)[C@H](C)[C@@H](O[C@@H]2O[C@H](C)C[C@H](N(C)C)[C@H]2O)[C@](C)(OC)C[C@@H](C)C(=O)[C@H](C)[C@H]2N(CCCCn3cnc(-c4cccnc4)c3)C(=O)O[C@]12C ; MIC50 = 0.008

Data point: CC(=O)NC[C@H]1CN(c2ccc(N3CCOCC3)c(F)c2)C(=O)O1 ; MIC50 = 1
